Here the recorded PRE Application SETFA, percentage damage on five-point scale is given for each entry.
- System: Setaria faberi (SETFA)
- ASSAY_NAME: Pre-emergence herbicidal glasshouse test (Table B1)
- Assay type: in vivo
- ASSAY_CONTEXT: applied at 500 g/h, evaluated after 13 days
OBSERVATION_TYPE: PRE Application SETFA, percentage damage on five-point scale

COMPOUND | DATA_VALUE
COCC(=O)Nc1c(OC(F)(F)F)ccc(C(=O)Nc2nnnn2C)c1Cl | 1 (1=0-19%)
Cn1nnnc1NC(=O)c1ccc(OC(F)(F)F)c(NC(=O)C2CC2(F)F)c1Cl (centres unmarked) | 5 (5=80-100%)
CC(=O)N(C)c1c(OC(F)(F)F)ccc(C(=O)Nc2nnc(C)o2)c1Cl | 5 (5=80-100%)
COc1ccc(C(=O)Nc2nnnn2C)c(Cl)c1NC(=O)C1CC1 | 5 (5=80-100%)
Cn1nnnc1NC(=O)c1ccc(OC(F)(F)F)c(NC(=O)CC2CC2)c1Cl | 5 (5=80-100%)
CCC(=O)Nc1c(OC(F)(F)C(F)F)ccc(C(=O)Nc2nnnn2C)c1Cl | 4 (4=60-79%)
Cc1nnc(NC(=O)c2ccc(OC(F)(F)F)c(N3CCCCC3=O)c2Cl)o1 | 5 (5=80-100%)
Cn1nnnc1NC(=O)c1ccc(OC(F)(F)F)c(NC(=O)C(C)(C)C)c1Cl | 5 (5=80-100%)
